# method-summary: mn = molality of the nth substance listed, in mol/kg
# reported-conditions: 298.15 K; 101 kPa; Liquid; Sing-around technique in a fixed-path interferometer; m1 = 0.9
parameter: speed of sound (m/s)

>>> result("O=P([O-])(O)O.[Li+] [lithium dihydrogen phosphate] + O")
1582.6
>>> result("O=P([O-])([O-])[O-].[Na+].[Na+].[Na+] [trisodium phosphate] + O")
1716.9
>>> result("O=P([O-])([O-])O.[K+].[K+] [dipotassium hydrogen phosphate] + O")
1641.6
>>> result("O=P([O-])(O)O.[Na+] [sodium dihydrogen phosphate] + O")
1587.8
>>> result("O=P([O-])([O-])O.[Na+].[Na+] [disodium hydrogen phosphate] + O")
1663.2

* * *

# method-summary: refractive index (Na D-line) (dimensionless); mn = molality of the nth substance listed, in mol/kg
# reported-conditions: 303.15 K; 101 kPa; Liquid; Standard Abbe refractometry; m1 = 0.3
parameter: refractive index

>>> result("O=P([O-])(O)O.[K+] [monopotassium phosphate] + O")
1.3368
>>> result("O=P([O-])([O-])O.[K+].[K+] [dipotassium hydrogen phosphate] + O")
1.3397
>>> result("O=P([O-])([O-])[O-].[Na+].[Na+].[Na+] [trisodium phosphate] + O")
1.3431
>>> result("O=P([O-])(O)O.[Na+] [sodium dihydrogen phosphate] + O")
1.3376
>>> result("O=P(O)(O)O [phosphoric acid] + O")
1.3345
>>> result("O=P([O-])([O-])[O-].[K+].[K+].[K+] [tripotassium phosphate] + O")
1.3435
>>> result("O=P([O-])([O-])O.[Na+].[Na+] [disodium hydrogen phosphate] + O")
1.3404
>>> result("O=P([O-])(O)O.[Li+] [lithium dihydrogen phosphate] + O")
1.3363

* * *

# method-summary: mn = molality of the nth substance listed, in mol/kg
# reported-conditions: 308.15 K; 101 kPa; Liquid; Sing-around technique in a fixed-path interferometer; m1 = 0.1
parameter: speed of sound (m/s)

>>> result("O=P([O-])([O-])[O-].[K+].[K+].[K+] [tripotassium phosphate] + O")
1539.7
>>> result("O=P([O-])([O-])O.[K+].[K+] [dipotassium hydrogen phosphate] + O")
1535.6
>>> result("O=P([O-])(O)O.[Li+] [lithium dihydrogen phosphate] + O")
1528.8

* * *

# method-summary: refractive index (Na D-line) (dimensionless); mn = molality of the nth substance listed, in mol/kg
# reported-conditions: 298.15 K; 101 kPa; Liquid; Standard Abbe refractometry; m1 = 0.3
parameter: refractive index

>>> result("O=P([O-])([O-])O.[K+].[K+] [dipotassium hydrogen phosphate] + O")
1.3404
>>> result("O=P(O)(O)O [phosphoric acid] + O")
1.335
>>> result("O=P([O-])([O-])O.[Na+].[Na+] [disodium hydrogen phosphate] + O")
1.3408
>>> result("O=P([O-])(O)O.[Li+] [lithium dihydrogen phosphate] + O")
1.3365
>>> result("O=P([O-])([O-])[O-].[Na+].[Na+].[Na+] [trisodium phosphate] + O")
1.3439
>>> result("O=P([O-])(O)O.[K+] [monopotassium phosphate] + O")
1.3374
>>> result("O=P([O-])(O)O.[Na+] [sodium dihydrogen phosphate] + O")
1.3381
>>> result("O=P([O-])([O-])[O-].[K+].[K+].[K+] [tripotassium phosphate] + O")
1.344
